# System: KRAS-mutant PDC tumor spheroid with HUVEC/MSC, viability
# assayInfo: Anticancer human tumor 327498-153-R-J2-PDC patient-derived uterine carcinosarcoma cell line growth inhibition [KRAS2]
# conditionNotes: second compound 1 µM; first compound 1 µM; stronger effect = lower value
measuredEndpoint: viability, T/C (%)
Give just the number in %; leave the unit off.

CC(=O)OC12COC1CC(O)C1(C)C(=O)C(O)C3=C(C)C(OC(=O)C(O)C(NC(=O)OC(C)(C)C)c4ccccc4)CC(O)(C(OC(=O)c4ccccc4)C21)C3(C)C (configuration not stated) + C=CC(=O)N1CCN(c2nc(=O)n(-c3c(C)ccnc3C(C)C)c3nc(-c4c(O)cccc4F)c(F)cc23)C(C)C1 ... 8.75

Alright, here's another compound for you.
Which measured viability, T/C value corresponds to CCN1CCN(Cc2ccc(Nc3ncc(F)c(-c4cc(F)c5nc(C)n(C(C)C)c5c4)n3)nc2)CC1 + C=CC(=O)N1CCN(c2nc(=O)n(-c3c(C)ccnc3C(C)C)c3nc(-c4c(O)cccc4F)c(F)cc23)C(C)C1 ?
38.3

----------
Overview of recorded viability, T/C for various compounds
# System: KRAS-mutant PDC tumor spheroid with HUVEC/MSC, viability
# assayInfo: Anticancer human tumor 327498-153-R-J2-PDC cell line growth inhibition [KRAS2];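 also: spheroids exposed to agents for seven days before reading; 100% = DMSO vehicle wells so lower means fewer viable cells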
# conditionNotes: second compound 3.16 µM; first compound 1 µM; stronger effect = lower value
Expressed in %, but write only the number.

Check out these entries, answers already filled in.
COc1cc(Nc2ncc3c(n2)-c2ccc(Cl)cc2C(c2c(F)cccc2OC)=NC3)ccc1C(=O)O + C=CC(=O)N1CCN(c2nc(OCC3CCCN3C)nc3c2CCN(c2cccc4cccc(C)c24)C3)CC1CC#N ... 0.13
CC1(C)CCC(CN2CCN(c3ccc(C(=O)NS(=O)(=O)c4ccc(NCC5CCOCC5)c([N+](=O)[O-])c4)c(Oc4cnc5[nH]ccc5c4)c3)CC2)=C(c2ccc(Cl)cc2)C1 + C=CC(=O)N1CCN(c2nc(OCC3CCCN3C)nc3c2CCN(c2cccc4cccc(C)c24)C3)CC1CC#N ... 0.45
CC(C)NCC(C(=O)N1CCN(c2ncnc3c2C(C)CC3O)CC1)c1ccc(Cl)cc1 (stereo not given) + C=CC(=O)N1CCN(c2nc(OCC3CCCN3C)nc3c2CCN(c2cccc4cccc(C)c24)C3)CC1CC#N ... 0.15
COc1cc2nccc(Oc3ccc(NC(=O)C4(C(=O)Nc5ccc(F)cc5)CC4)cc3)c2cc1OC + CNCc1ccccc1-c1csc(C(C)Nc2nc(C)nc3cc(OC)c(OC)cc23)c1 ... 0.1

GET /values?readout=viability, T/C&system=KRAS-mutant PDC tumor spheroid with HUVEC/MSC, viability&item= CCN1CCN(Cc2ccc(Nc3ncc(F)c(-c4cc(F)c5nc(C)n(C(C)C)c5c4)n3)nc2)CC1 + COc1cc2nc(C)nc(NC(C)c3cc(N)cc(C(F)(F)F)c3)c2cc1OC1CCOC1
31.3

----------
# Tested on: KRAS-mutant PDC tumor spheroid with HUVEC/MSC, viability
# assayInfo: Anticancer human tumor 327498-153-R-J2-PDC cell line growth inhibition [KRAS2];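 also: spheroids exposed to agents for seven days before reading; 100% = DMSO vehicle wells so lower means fewer viable cells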
# conditionNotes: second compound 0.316 µM; first compound 0.01 µM; stronger effect = lower value
// classify: if (viability, T/C < 30%) YES else NO

Answered examples (3):
CC1COCCN1c1cc(-c2ccnn2C)c2ccnc(-c3ccn[nH]3)c2n1 (stereo not given) + CC1OCC2(CCN(c3cnc(Sc4ccnc(N)c4Cl)c(N)n3)CC2)C1N ... NO
CC1COCCN1c1cc(-c2ccnn2C)c2ccnc(-c3ccn[nH]3)c2n1 (stereo not given) + C=CC(=O)N1CCN(c2nc(=O)n(-c3c(C)ccnc3C(C)C)c3nc(-c4c(O)cccc4F)c(F)cc23)C(C)C1 ... NO
CC(=O)OC12COC1CC(O)C1(C)C(=O)C(O)C3=C(C)C(OC(=O)C(O)C(NC(=O)OC(C)(C)C)c4ccccc4)CC(O)(C(OC(=O)c4ccccc4)C21)C3(C)C (stereo not given) + CNCc1ccccc1-c1csc(C(C)Nc2nc(C)nc3cc(OC)c(OC)cc23)c1 ... YES

I'd appreciate it if you could check whether Cn1ncnc1[C@H]1c2n[nH]c(=O)c3cc(F)cc(c23)N[C@@H]1c1ccc(F)cc1 + CNCc1ccccc1-c1csc(C(C)Nc2nc(C)nc3cc(OC)c(OC)cc23)c1 has viability, T/C smaller than 30%.
NO
